Target: Neu5Ac(a2-3)Gal(b1-4)GlcNAc(b1-2)Man(a1-3)[Neu5Ac(a2-3)Gal(b1-4)GlcNAc(b1-2)Man(a1-6)]Man(b1-4)GlcNAc(b1-4)GlcNAc
Assay: glycan array binding signal (z-score within array); higher = stronger binding
Conditions: glycan notation: IUPAC condensed, linker removed
The entries come from a sample that favours the strongest signals as a whole.
Examples of binders with documented glycan array binding signal (z-score) follow.
Would you mind answering with just the numeric figure?

binder	glycan array binding signal (z-score)
Sp8391B-bot-388-20-388 (Bacteroides ovatus) (protein) GCQNNDENEQHYDNKLFISASNFTKEILFKAGDTNVETGLSVAIAKPEEHDIKVTMSPAPELLSTYKLAYYDETAVLLSEEHYSMPETSTTIKSGSIVSPELPIEFINTGELDIKTTYVLPVTIKSVEGIGVLQSAKTYYYVFRGASLINVVCNISRNRAYPDFKNDSKFNNLTENTMEILFKANSFPNTLNTLMGIESNYLLRIGDATIPNNQLQVATSVNNCTSADLQLESGKWYHVAVAFNKGNVKVYINGVEKLSGSTGKSSVSLGAKHTNEEDGSRCFWVGYSYKDDRYFDGVVSEVRIWNRALTAEEIQATNHFYTIEPESEGLIAYWKFDEGSGTVAKDYSVSGYDLTIEKEPKWESVSLPQ	-0.533

In the following, a different binder is considered.
Form field: reported glycan array binding signal (z-score) of CFEM-PPm (Pichia pastoris), F2QPV1 (protein) AVATPPACLLACAAEVVKESSDCDALNNIQCICENEGSAIHACLESTCPDGLSSTALQSFEDVCE
-0.218
